Test system: STK16
Conditions: concentration: 1 μM, replicates: in singlicate; n = 1;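 further: KINOMEscan kinase panel screen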
experimentalReadout: %Inh (%)
The reply should be a number in %, with the unit left off.

Known results for compounds:
Fc1cccc(CSc2nnc(-c3ccc4c(c3)CCO4)o2)c1; 0
COc1cc2ncn(-c3cc(OCc4ccc(S(C)(=O)=O)cc4)c(C(N)=O)s3)c2cc1OC; 2
COc1cc2ncn(-c3cc(OCCCc4ccccc4)c(C(N)=O)s3)c2cc1OC; 13

Problem: Sample O=C(Nc1n[nH]c2nc(-c3ccccc3)c(Cl)cc12)C1CC1 — what was its %Inh?
Result: 1

Problem: Sample CN(C)c1cc(-c2ccc3c(N)n[nH]c3c2)nc(N)n1 — what was its %Inh?
Result: 0

Problem: Sample COc1cc(Nc2ccnc3ccc(C(F)(F)F)cc23)cc(OC)c1OC — what was its %Inh?
Result: 0

Problem: Sample Cc1ccc(-c2ccc3c(ccc4sc5c(c43)NC[C@@H](C)N=C5N(C)C)n2)cn1 — what was its %Inh?
Result: 0

Problem: Sample Cc1cccc(-c2nc(Nc3ccc4c(cnn4C)c3)c3ccccc3n2)n1 — what was its %Inh?
Result: 5

Problem: Sample Nc1nccc2scc(-c3ccc4c(c3)CCN4C(=O)Cc3ccccc3)c12 — what was its %Inh?
Result: 4

###

Test system: JNK1
Construct: gene MAPK8
Conditions: concentration: 1 μM, replicates: in singlicate; n = 1
experimentalReadout: %Inh (%)
The reply should be a number in %, with the unit left off.

Problem: Sample Nc1ncnc2c1ncn2-c1ccc(Cl)cc1 [AH2635] — what was its %Inh?
Result: 0

Problem: Sample C[C@@H]1CC[C@H](C(=O)NC2CCCCC2)CN1c1cc(-c2ccc3c(N)n[nH]c3c2)nc(N)n1 [GSK2291363] — what was its %Inh?
Result: 34

Problem: Sample Cc1cc(Nc2nc(-c3cccc(C)n3)nc3ccccc23)ccn1 [GW872411] — what was its %Inh?
Result: 0

Problem: Sample COc1cc(Nc2nccc(N3CCC(NC(=O)C4COc5ccccc5O4)C3)n2)cc(OC)c1OC (stereo not drawn) [GSK1379761] — what was its %Inh?
Result: 20

Problem: Sample Cc1nc(N(C)[C@H]2CN(C(=O)CC#N)CC[C@H]2C)c2cc[nH]c2n1 — what was its %Inh?
Result: 1

###

Test system: LOK
Construct: gene STK10
Settings: concentration: 1 μM, replicates: in singlicate; n = 1
%Inh listing for selected molecules.
The reply should be a number in %, with the unit left off.

CCC(=O)c1c(-c2ccccc2)c2cc(Cl)ccc2c(=O)n1Cc1cc(S(C)(=O)=O)n(CC(N)=O)n1; 0
Cn1c(=O)c(F)c(Nc2ccc(I)cc2F)c2c(=O)n(OC[C@H](O)CO)cnc21; 2

Here's the next entry for you.
Problem: %Inh of Cc1nnc(-c2ccc3ncn(-c4ccc(S(C)=O)cc4)c3c2)o1 (stereo not drawn) on LOK?
Result: 4

###

%Inh listing for selected molecules.
Test system: p38-delta
Settings: concentration: 1 μM, replicates: in singlicate; n = 1
The reply should be a number in %, with the unit left off.

Known results for molecules:
COc1cc(Nc2nccc(N3CCC(NC(=O)C4COc5ccccc5O4)C3)n2)cc(OC)c1OC (stereo not shown); 34
COc1cc2ncn(-c3cc(OCc4ccncc4)c(C(N)=O)s3)c2cc1OC; 42
Cc1ccc(Oc2ccc(Nc3ncnc4cc[nH]c34)cc2C)cn1; 30
CN1C(=O)C(Nc2ccccc2)=C(c2ccccc2)C1=O; 0

Problem: Sample Nc1ncnc2c1ncn2-c1cccc2ccccc12 — what was its %Inh?
Result: 0

Problem: Sample Nc1nc(-c2ccccc2F)c(-c2ccnc3ccccc23)s1 — what was its %Inh?
Result: 36

Problem: Sample O=C(Nc1n[nH]c2cc(-c3ccccc3F)ccc12)C1CC1 — what was its %Inh?
Result: 0

Problem: Sample CCCC(=O)Nc1n[nH]c2ncc(-c3cccc4ccccc34)cc12 — what was its %Inh?
Result: 26

Problem: Sample O=C(Nc1n[nH]c2nc(-c3ccccc3)c(Br)cc12)C1CC1 — what was its %Inh?
Result: 0

Problem: Sample CCCNC(=O)Nc1ccc(Oc2ncnc3ccn(C)c23)cc1 — what was its %Inh?
Result: 4

Problem: Sample CCC(=O)c1c(-c2ccccc2)c2cc(Cl)ccc2c(=O)n1Cc1cc(S(C)(=O)=O)n(CC(F)F)n1 — what was its %Inh?
Result: 19

Problem: Sample COc1ccc(CNC(=O)NC2CCN(c3ccnc(Nc4ccc(F)cc4)n3)C2)cc1 (stereo not shown) — what was its %Inh?
Result: 38

Problem: Sample Nc1nc(N)c2nc(-c3ccccc3)[nH]c2n1 — what was its %Inh?
Result: 19

Problem: Sample CC(C)(C)c1ccc(C(=O)Nc2cn3cc(-c4ccccc4)ccc3n2)cc1 — what was its %Inh?
Result: 34

Problem: Sample CCC(=O)c1c(-c2ccccc2)c2cc(Cl)ccc2c(=O)n1Cc1ccc(C(=O)O)cc1 — what was its %Inh?
Result: 4

Problem: Sample CCc1ccc(-c2ccc3c(c2)-c2nn(C)cc2S(=O)(=O)N3C)cc1 — what was its %Inh?
Result: 22

Problem: Sample Cc1ccccc1COc1cc(-n2cnc3cc(Cl)ccc32)sc1C(N)=O — what was its %Inh?
Result: 0

Problem: Sample COc1cccc(C2=C(N(C)c3ccccc3)C(=O)NC2=O)c1 — what was its %Inh?
Result: 42

Problem: Sample COc1cc2nccc(Nc3cccc(Oc4ccccc4)c3)c2cc1OC.Cl — what was its %Inh?
Result: 22

Problem: Sample O=C1NC(=O)C(c2ccccc2)=C1Nc1cccc(O)c1 — what was its %Inh?
Result: 0

Problem: Sample O=C(NCCNc1ccnc(Nc2ccc(F)cc2)n1)Nc1ccc2c(c1)OCO2 — what was its %Inh?
Result: 37

Problem: Sample COc1ccc(-n2cnc3c(N)ncnc32)cc1 — what was its %Inh?
Result: 0

The values you see were collected from paper PMC5540273.
